Just for reference, paper PMC6008489 is where these values come from.

# target.or.test.system: MPS1 (Homo sapiens)
# Sequence (P33981 1-857): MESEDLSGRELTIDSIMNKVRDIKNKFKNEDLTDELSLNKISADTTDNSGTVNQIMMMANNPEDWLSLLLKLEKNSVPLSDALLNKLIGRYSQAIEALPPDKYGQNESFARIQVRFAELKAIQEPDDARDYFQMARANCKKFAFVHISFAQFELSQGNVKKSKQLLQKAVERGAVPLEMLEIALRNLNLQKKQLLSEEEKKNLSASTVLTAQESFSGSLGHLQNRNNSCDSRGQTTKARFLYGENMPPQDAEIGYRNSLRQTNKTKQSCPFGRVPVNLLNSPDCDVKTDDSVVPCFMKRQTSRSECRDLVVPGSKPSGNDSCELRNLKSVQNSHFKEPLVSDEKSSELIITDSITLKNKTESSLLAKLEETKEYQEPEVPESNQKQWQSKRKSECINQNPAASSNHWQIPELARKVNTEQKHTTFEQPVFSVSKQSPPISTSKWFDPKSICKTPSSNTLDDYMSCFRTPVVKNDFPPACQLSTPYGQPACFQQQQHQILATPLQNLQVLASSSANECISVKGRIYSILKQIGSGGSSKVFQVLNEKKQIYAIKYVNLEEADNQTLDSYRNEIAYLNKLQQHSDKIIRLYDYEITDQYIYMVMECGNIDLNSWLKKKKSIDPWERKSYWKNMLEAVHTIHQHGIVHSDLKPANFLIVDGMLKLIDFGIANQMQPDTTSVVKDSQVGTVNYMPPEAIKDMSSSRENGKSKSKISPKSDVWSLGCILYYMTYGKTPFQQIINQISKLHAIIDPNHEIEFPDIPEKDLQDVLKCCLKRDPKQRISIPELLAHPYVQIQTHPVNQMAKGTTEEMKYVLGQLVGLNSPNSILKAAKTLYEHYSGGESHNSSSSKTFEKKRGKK
assay.metric: log10 Ki (log10 of the value in µM)
Response schema: value (number) is log10 of Ki in units of µM.

Each of the following entries comes with a recorded value; kindly state log10 Ki for each.
1. Nc1cc(-c2ccnc(NC3CC3)n2)c[nH]c1=O
2. O=C(Nc1cc(-c2ccnc(NC3CC3)n2)c[nH]c1=O)c1ccccc1
3. Nc1cc(-c2cncnc2)c[nH]c1=O
4. O=C(Nc1cc(-c2ccncc2)c[nH]c1=O)c1ccccc1
5. Cn1cc(-c2c[nH]c(=O)c(N)c2)cn1

1: 1.04; 2: 0.51; 3: 2.43; 4: 0.73; 5: 1.98
